molecular target: b-Raf (Homo sapiens, UniProt P15056, V600E); construct: endogenous in cells; host or cells: A2058 human melanoma cells; assay: Raf cellular assay (phospho-Mek1/2 ELISA in A2058 cells); format: cell-based; details: Table 3; human melanoma A2058 cells (b-Raf mutation), Mek1/2 Ser217/221 phosphorylation, 1 hour incubation; read-out: pMEK IC50
Sequence (P15056 whole entry V600E): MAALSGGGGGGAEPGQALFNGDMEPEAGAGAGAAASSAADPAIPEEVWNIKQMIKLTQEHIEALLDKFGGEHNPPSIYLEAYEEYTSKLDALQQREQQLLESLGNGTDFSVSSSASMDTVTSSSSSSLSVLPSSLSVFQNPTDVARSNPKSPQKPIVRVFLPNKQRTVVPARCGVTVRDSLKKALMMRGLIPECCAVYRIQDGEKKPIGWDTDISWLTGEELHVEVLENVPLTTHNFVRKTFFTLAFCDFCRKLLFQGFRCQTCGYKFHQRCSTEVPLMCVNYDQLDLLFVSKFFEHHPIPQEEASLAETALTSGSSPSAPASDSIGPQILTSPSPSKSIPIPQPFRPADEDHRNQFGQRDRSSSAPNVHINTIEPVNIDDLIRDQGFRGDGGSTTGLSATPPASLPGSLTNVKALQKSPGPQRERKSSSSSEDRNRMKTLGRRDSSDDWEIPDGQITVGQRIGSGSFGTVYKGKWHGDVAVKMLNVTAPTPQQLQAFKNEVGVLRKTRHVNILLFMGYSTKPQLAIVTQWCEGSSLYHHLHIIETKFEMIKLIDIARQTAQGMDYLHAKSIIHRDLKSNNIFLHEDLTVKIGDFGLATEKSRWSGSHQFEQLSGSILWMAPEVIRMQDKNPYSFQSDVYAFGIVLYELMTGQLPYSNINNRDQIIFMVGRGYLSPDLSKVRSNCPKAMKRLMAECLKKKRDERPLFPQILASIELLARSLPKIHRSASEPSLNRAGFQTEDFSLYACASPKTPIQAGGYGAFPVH
pIC50: −log10 of the molar value.
assay.endpoint: pIC50

molecule: COc1cncc(-c2nn(CC(F)F)cc2-c2ccnc(NCCC#N)n2)c1 [Example B-46]
pIC50: 7.80

molecule: Cc1c[nH]c2ncc(-c3nn(C(F)F)cc3-c3ccnc(N)n3)cc12 [Example B-40]
pIC50: 7.32

molecule: C[C@H](O)CNc1nccc(-c2cn(C3CCOCC3)nc2-c2cnc3[nH]cc(Cl)c3c2)n1 [Example B-76]
pIC50: 7.92

molecule: COc1cc(-c2nn(CC(F)F)cc2-c2ccnc(NC[C@H](C)O)n2)cnc1N [Example B-104]
pIC50: 8.02

molecule: COc1cc(-c2nn(CC(F)F)cc2-c2ccnc(NCCC#N)n2)cnc1N [Example B-82]
pIC50: 9.20

I: CC(C)n1cc(-c2ccnc(NCCC#N)n2)c(-c2cnc3c(c2)CCN3)n1 [Example B-20]
II: CC(C)n1cc(-c2ccnc3[nH]ccc23)c(-c2cnc3[nH]cc(Cl)c3c2)n1 [Example H-4]
Q) Out of I and II , name the one with the higher pIC50. Write down the label attached to your selection.
A) I
(I: 8.18, II: 7.18)
